Origin of values: PubChem BioAssay (NCI)

- System: SNB-19 CNS
- Experiment description: NCI-60 one-dose screen, 48 h
- Assay conditions: 10 µM unless noted
The panel holds about 83,000 compounds, 20% with a hit somewhere; the sample as a whole holds those more often. Active and inactive are the calls of the source. Rule for the calls: active = growth percent below 10; inactive = the rest.
Choose one outcome from this list and give only that: 1.0 = active, 0.0 = inactive

Incoming: Given "C=C(C)[C@@H]1CC[C@]2(C)[C@H](C(=O)C=C3[C@@H]4C[C@](C)(C(=O)N5CCN(C)CC5)CC[C@]4(C)CC[C@]32C)[C@@]1(C)CCC#N" , state the outcome it received in this test.
Outgoing: 1.0

Incoming: Cool, now "Cc1cnc([C@]23CC[C@@H](C)[C@H](C)[C@H]2C2=CC[C@@H]4[C@@]5(C)Cc6c([nH]c7ccccc67)C(C)(C)[C@@H]5CC[C@@]4(C)[C@]2(C)CC3)o1"
Outgoing: 0.0

Incoming: Cool, now "COc1ccc(-c2cc(-c3ccccc3)nc(SCCCCCC(=O)NO)n2)cc1"
Outgoing: 0.0

Incoming: Cool, now "CCN(CC)c1ccc(/C=C/C=C2\NC(=O)NC2=O)cc1"
Outgoing: 0.0

Incoming: Cool, now "Nc1cc(Cl)cc2cccnc12"
Outgoing: 0.0

Incoming: Cool, now "Nc1cc(N)c(N=Nc2ccc(S(=O)(=O)O)cc2)cc1N=Nc1ccc(-c2ccc(N=Nc3ccc(O)c(C(=O)O)c3)cc2)cc1"
Outgoing: 0.0

Incoming: Cool, now "COc1cc(Cl)cc(-c2nn(C(=O)NS(=O)(=O)c3ccccc3)cc2-c2ccncc2)c1"
Outgoing: 0.0

Incoming: Cool, now "C[C@H]1[C@H](C)CC[C@]2(C(=O)O)CC[C@]3(C)C(=CC[C@@H]4[C@@]5(C)C/C(=C/c6ccco6)C(=O)C(C)(C)[C@@H]5CC[C@]43C)[C@H]12"
Outgoing: 1.0

Incoming: Cool, now "CC(=O)OC[C@]12CC[C@@H]([C@@H](C)C(N)=O)[C@@H]1[C@H]1CC[C@@H]3[C@@]4(C)CC[C@H](OC(C)=O)C(C)(C)[C@@H]4CC[C@@]3(C)[C@]1(C)CC2"
Outgoing: 1.0

Incoming: Cool, now "O=C(Nc1ccc(Nc2ccncc2)cc1)c1ccc([N+](=O)[O-])cc1"
Outgoing: 0.0

Incoming: Cool, now "C=C(CN=[N+]=[N-])[C@@H]1CC[C@]2(C)[C@H](CC[C@@H]3[C@H]4[C@H]5OC(=O)[C@@]4(CCC5(C)C)CC[C@]32C)[C@@]1(C)CCC#N"
Outgoing: 0.0

Incoming: Cool, now CCCCCCCCCN(CCCCCCCCC)C(C)C(=O)c1ccc2cc(Br)c3ccccc3c2c1 (configuration not stated)
Outgoing: 0.0

Incoming: Cool, now "C=C(C)[C@@H]1CC[C@]2(C(=O)NCCNCCNCCN)CC[C@]3(C)[C@H](CC[C@@H]4[C@@]5(C)CC[C@H](O)C(C)(C)[C@@H]5CC[C@]43C)[C@@H]12"
Outgoing: 1.0

Incoming: Cool, now "O=C(NCCO)c1cccnc1"
Outgoing: 0.0

Incoming: Cool, now CCN(CC)c1ccc2cc(C(Nc3ccc(C)cc3)c3nnnn3C(C)(C)C)c(=O)oc2c1 (configuration not stated)
Outgoing: 0.0

Incoming: Cool, now "CC(C)=CC/C=C(/C)[C@H]1CC[C@]2(C)[C@@H]1CC[C@@H]1[C@@]3(C)CC/C(=N/O)C(C)(C)[C@@H]3CC[C@]12C"
Outgoing: 0.0

Incoming: Cool, now "C=C(C)[C@@H]1CC[C@]2(COC(=O)c3ccccc3C(=O)O)CC[C@]3(C)[C@H](CC[C@@H]4[C@@]5(C)CC[C@H](OC(=O)c6ccccc6C(=O)O)C(C)(C)[C@@H]5CC[C@]43C)[C@@H]12"
Outgoing: 1.0

====

- System: OVCAR-8 ovarian
- Experiment description: NCI-60 one-dose screen, 48 h
- Assay conditions: 10 µM unless noted
- Experimental: Growth inhibition of the OVCAR-8 human tumor cell line is measured as a screen for anti-cancer activity. Cells are grown in 96 well plates and exposed to the test compound for 48 hours. Compounds are tested at a single concentration, which is 10^-5 M for most compounds. The reported endpoint is percent growth (GI% or GIPRCNT), where numbers from 0 - 100% represent growth inhibition, and numbers from -100% - 0 represent cell death. For example, a value of 40 represents 60% growth inhibition. […]
About 83,000 compounds went through this panel and 20% of them were active in at least one assay; those are over-represented in the sample as a whole. Activity calls are given as the source filed them. The calls were made as follows: active = growth percent below 10; inactive = the rest.
Choose one outcome from this list and give only that: YES (active), NO (inactive)

Incoming: Given "Fc1ccc(NC(=S)c2ccccc2)cc1" , state the outcome it received in this test.
Outgoing: NO

Incoming: Cool, now CCN(CC)CC(C)Nc1ccc(C)c2sc3ccccc3c(=O)c12 (centres undefined)
Outgoing: NO

Incoming: Cool, now "Cc1ccc(NC(=O)N[C@@H](Cc2cc(F)cc(F)c2)C(=O)N[C@@H]2C(=O)N3CCC[C@H]3C(=O)N3CCOC[C@H]3C(=O)N[C@@H](C)C(=O)N3C[C@H](C)C[C@H]3C(=O)O[C@H]2C)cc1"
Outgoing: NO

Incoming: Cool, now "Cc1cnc(N)nc1OCCNC(=O)c1cccc(-c2ccc(S(=O)(=O)Nc3ccc4c(c3)N(C(=O)C3CC3)CCC4)cc2)c1"
Outgoing: NO

Incoming: Cool, now "Cc1ccc(Oc2c(/C=N/NC(=O)Cn3c(=O)sc4ccccc43)c(C)nn2-c2ccccc2)cc1"
Outgoing: NO

Incoming: Cool, now "CC(C)(C)OC(=O)N1C=C/C(=C\Cn2cc(-c3ccccc3)nn2)CC1"
Outgoing: NO

Incoming: Cool, now "CCOC(=O)/C(C#N)=C(\C)CCc1ccccc1"
Outgoing: NO

Incoming: Cool, now "CNc1cc(C(=O)O)nc(NC)n1"
Outgoing: NO

Incoming: Cool, now "COc1cc2c(c(OC)c1OC)-c1ccc(NNC(N)=S)c(=O)cc1[C@@H](NC(C)=O)CC2"
Outgoing: YES

====

- Test system: SR leukemia
- Experiment description: NCI-60 one-dose screen, 48 h (100 = growth as untreated, 0 = no growth, -100 = all killed)
- Assay conditions: 10 µM unless noted
Compounds without any hit were thinned out: in the full panel of roughly 83,000, 20% have a hit.
Tag: Criterion met if measured growth is not below 40%, Criterion not met if it is.

Incoming: Kindly determine if growth recorded for "Cc1ccc(S(=O)(=O)Nc2ccccc2)cc1N" is above or exactly 40%.
Outgoing: Criterion met

Incoming: Cool, now "COc1ccc(-c2nc3ccccn3c2/C=C/C(=O)c2cc(OC)c(OC)c(OC)c2)cc1OC"
Outgoing: Criterion not met

Incoming: Cool, now "O=C(N=c1n(-c2ccccc2)nc2n1CCN2C1=NCCN1)c1ccc(Cl)cc1"
Outgoing: Criterion met

Incoming: Cool, now "O=C(Nc1ccc(Oc2ccc(F)cc2)c(Cl)c1)c1cnccn1"
Outgoing: Criterion met

Incoming: Cool, now "Clc1ccc(N2CCN(CCCN3CCN(c4cccc(Cl)c4)CC3)CC2)cc1"
Outgoing: Criterion not met

Incoming: Cool, now CC(C)[N+](C)(C)CC(O)COc1cccc2ccccc12 (stereo not given)
Outgoing: Criterion met

Incoming: Cool, now "CSc1nc2c(c(=O)n1C)C1(C(=O)N(Cc3ccccc3)c3ccccc31)c1c(nc(SC)n(C)c1=O)N2"
Outgoing: Criterion met

Incoming: Cool, now COc1ccc(CC(C#N)c2ccc(Cl)cc2)cc1 (stereo not given)
Outgoing: Criterion not met

Incoming: Cool, now "O=C1COCCN1c1ccc(NCc2cn(Cc3ccccc3)c3ccccc23)cc1"
Outgoing: Criterion met

Incoming: Cool, now N#Cc1ccc(-c2ccc(COc3ccc(CC4SC(=O)NC4=O)cc3)cc2)cc1 (stereo not given)
Outgoing: Criterion met

====

- System: SNB-19 CNS
- Experiment description: NCI-60 one-dose screen, 48 h
- Assay conditions: 10 µM unless noted
About 83,000 compounds went through this panel and 20% of them were active in at least one assay; those are over-represented in the sample as a whole. The source made the active and inactive calls. Rule for the calls: active = growth percent below 10; inactive = the rest.
Choose one outcome from this list and give only that: active, inactive

Incoming: Given "O=C(NCCCCCCCNC(=O)OCc1ccc2c(Cl)cc(Cl)c(O)c2n1)OCc1ccc2c(Cl)cc(Cl)c(O)c2n1" , state the outcome it received in this test.
Outgoing: active

Incoming: Cool, now "CCNc1cc2c(cc1Br)-c1ccccc1C2=O"
Outgoing: inactive

Incoming: Cool, now "C=C(C)[C@@H]1CC[C@]2(C)[C@H](CC[C@@H]3[C@@H]([C@@](C)(O)CCC=C(C)C)CC[C@]32C)[C@@]1(C)CCC(=O)N1CCN(C)CC1"
Outgoing: active

Incoming: Cool, now "Nc1cccc2c1C(=O)c1cccc(NC(=O)c3ccccc3)c1C2=O"
Outgoing: inactive

Incoming: Cool, now "C=C(CC(=O)OC)C(C)=O"
Outgoing: inactive

Incoming: Cool, now "CCN(CCO)CCC(=O)c1ccc([N+](=O)[O-])cc1"
Outgoing: inactive

Incoming: Cool, now "COc1ncc(-c2ccc3nccc(C#CCCCCC(=O)O)c3c2)cc1NS(=O)(=O)c1ccc(F)cc1F"
Outgoing: inactive

Incoming: Cool, now "N#C/C(C(=O)c1ccccc1)=C1/C(=O)Nc2ccccc21"
Outgoing: inactive

Incoming: Cool, now "CC(=O)O.CC(=O)O.O.[Fe]"
Outgoing: inactive

Incoming: Cool, now COc1cc2c(c(OC)c1)C1c3cc(OC)ccc3NC(=O)N1CC2 (stereo not drawn)
Outgoing: inactive

Incoming: Cool, now "COc1ccc2nc3cc(Cl)ccc3c(Nc3ccc(O)c(CN4CCCC4)c3)c2c1"
Outgoing: inactive

Incoming: Cool, now "C=C(C)[C@@H]1CC[C@]2(COCCCN)CC[C@]3(C)[C@H](CC[C@@H]4[C@@](C)(CCCNCCCN)[C@H](C(=C)C)CC[C@]43C)[C@@H]12"
Outgoing: active

Incoming: Cool, now "CC1(C)NCCC[C@]2(C)[C@H]3C=CC4=C5C[C@](C)(CO)CC[C@]5(C)CC[C@@]4(C)[C@]3(C)CC[C@@H]12"
Outgoing: active

Incoming: Cool, now "CN(C)c1ccc(N=Nc2ccc3ccccc3c2)cc1"
Outgoing: inactive

Incoming: Cool, now "c1ccc(-c2nc(N3CCCNCC3)c3nc(-c4ccccc4)oc3n2)cc1"
Outgoing: inactive

Incoming: Cool, now "CN(Cc1cccc(C(F)(F)F)c1)C(=O)[C@@H](CC(=O)N1CCC(N2CCCCC2)CC1)N1C(=O)[C@@H](N2C(=O)OC[C@@H]2c2ccccc2)[C@H]1/C=C/c1ccccc1"
Outgoing: inactive

Incoming: Cool, now N#Cc1ccc(-c2ccc(COc3ccc(CC4SC(=O)NC4=O)cc3)cc2)cc1 (stereo not drawn)
Outgoing: inactive

Incoming: Cool, now "CCn1cc(-c2ccnc(NCCNS(=O)(=O)c3ccc(Br)cc3)c2)c(-c2cccc(OC)c2)n1"
Outgoing: inactive

Incoming: Cool, now "c1nc(N2CCOCC2)c2[nH]ccc2n1"
Outgoing: inactive

Incoming: Cool, now "CN(C)C(=S)Sc1ccc([N+](=O)[O-])cc1[N+](=O)[O-]"
Outgoing: inactive

Incoming: Cool, now "CCc1cccc(Cl)c1"
Outgoing: inactive

Incoming: Cool, now "O=C1C(Cl)=C(Nc2ccc3cn[nH]c3c2)C(=O)c2ccccc21"
Outgoing: inactive

Incoming: Cool, now "C=C(C)[C@@H]1CC[C@]2(C(=O)NCCCN)CC[C@]3(C)[C@H](CC[C@@H]4[C@@]5(C)CC[C@H](O)C(C)(C)[C@@H]5CC[C@]43C)[C@@H]12"
Outgoing: active
